Documented pKd across a set of binders
STUDY_SYSTEM: human TGFßRII (antigen of the Octet experiments) (human, UniProt P37173 23-166)
Sequence (P37173 23-166): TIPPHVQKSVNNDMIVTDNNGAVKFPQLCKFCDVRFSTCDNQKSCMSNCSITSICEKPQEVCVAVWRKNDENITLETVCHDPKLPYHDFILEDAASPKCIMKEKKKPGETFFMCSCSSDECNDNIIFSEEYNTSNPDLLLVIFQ
MEASUREMENT_DESCRIPTION: BLI (Octet)
Keep in mind that pKd stands for -log10 of concentration in molar terms.

>>> quantitative_result("H1 L1.14 XENP34577 (antibody, V domains shown) VH: QLQVQESGPGLVKPSETLSLTCTVSGGSISNSYFSWGWIRQPPGKGLEWIGSFYYGEKTYYNPSLKSRATISIDTSKSQFSLKLSSVTAADTAVYYCPRGPTMIRGVIDSWGQGTLVTVSS VL: EIVLTQSPATLSLSPGERATLSCRASQSVRSNLAWYQQKPGQAPRLLIYDASNRATGIPARFSGSGSGTDFTLTISSLEPEDFAVYYCQQRSNWPPTFGQGTKVEIK")
8.90

In: Look at this binder and give its reported pKd. H1 L1.32 XENP34595 (antibody, V domains shown) VH: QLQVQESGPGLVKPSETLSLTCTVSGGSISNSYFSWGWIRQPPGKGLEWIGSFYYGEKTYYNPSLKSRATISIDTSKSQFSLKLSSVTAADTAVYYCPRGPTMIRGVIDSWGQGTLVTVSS VL: EIVLTQSPATLSLSPGERATLSCRASQSVRSYLAWYQQKPGQAPRLLIYDASNRATGIPARFSGSGSGTDFTLTISSLQPEDFAVYYCQQRSNWPPTFGQGTKVEIK
Out: 9.00
